- Test system: HOP-62 NSCLC
- experiment_description: NCI tumour cell line growth inhibition, 48 h
In this section, each of the compounds is paired with its reported TGI.

Below, each entry is followed by its recorded TGI result.
FC(F)(F)c1cc(C2SCc3nc4ccccc4n32)cc(C(F)(F)F)c1 (stereo unspecified) = > 100 µM
CNC(=O)c1nn(C)c2c1C(C)(C)Cc1cnc(Nc3ccc(N4CCN(C)CC4)cc3)nc1-2 = 9.84 µM
c1ccc2[nH]c(-c3ccc(Nc4nc(N5CCCCC5)nc(N5CCOCC5)n4)cc3)nc2c1 = 4.32 µM
CC(C)OC(=O)OCSc1ccccc1N=Cc1cccc([N+](=O)[O-])c1 = > 10 µM
C[C@H]1SC(c2ccc(Cl)cc2Cl)N(NC(=O)c2ccncc2)C1=O (stereo partly specified) = 94.3 µM

GET /values?readout=TGI&system=HOP-62 NSCLC&item= `c1c2c(cc(-n3nnc4c3CCCCCC4)c1-n1nnc3c1CCCCCC3)CCCCCC2`
39 µM

Consider next the compound `CCNC(=O)c1noc(-c2cc(C(C)C)c(O)cc2O)c1-c1ccc(CN2CCOCC2)cc1` in the same way.
29.4 µM

Consider next the compound O=C1CSC2=NC3=C(COC/C3=C\c3ccc(Br)cc3)C(c3ccc(Br)cc3)N12 (stereo unspecified) in the same way.
> 100 µM

Consider next the compound `Nc1ccc(/C=C/C(=O)NCc2cc3cc(-c4ccc(C(=O)N5CCC(F)(F)CC5)cc4)cc(-c4ccc(F)cc4)c3o2)cn1` in the same way.
> 100 µM

Consider next the compound `NS(=O)(=O)c1cccc(NC(=S)NC(=O)Nc2ccc(Cl)c(Cl)c2)c1` in the same way.
30.9 µM

Consider next the compound `CC(C)(Oc1ccc(/C=C/C(=O)c2ccc(Cl)cc2)cc1)C(=O)Nc1c(Cl)cccc1Cl` in the same way.
> 100 µM

Consider next the compound `C=CC(OCC)(OCC)OCC` in the same way.
> 100 µM

Consider next the compound `NC(=S)NN/C=C(\C=Nc1ccccc1)[N+](=O)[O-]` in the same way.
> 100 µM

Consider next the compound `COC(=O)C1(Cc2ccc3c(c2)CCC3)Cc2ccccc2C1` in the same way.
> 100 µM

Consider next the compound `CCCCn1c(-c2ccc([N+](=O)[O-])cc2)cs/c1=N/N=C1\C(=O)Nc2ccc(Br)cc21` in the same way.
37.9 µM

Consider next the compound `C#CCN(Cc1ccc2nc(OC)c(OC)nc2c1)c1cc(OC)c(OC)c(OC)c1` in the same way.
> 67.9 µM

Consider next the compound `N#Cc1nc(C2CCC2)oc1N` in the same way.
> 100 µM

Consider next the compound `O=C(Nc1ccc(Cl)c(Cl)c1)NS(=O)(=O)c1cnccc1Oc1ccc(F)cc1` in the same way.
51.2 µM

* * *

- Test system: HCT-15 colon
- experiment_description: NCI tumour cell line growth inhibition, 48 h
measured_metric: TGI

CCCCn1c(-c2ccc(C(=O)O/N=C(\N)c3ccc4c(c3)OCO4)cc2)nc(-c2ccccc2)c1-c1ccccc1 = > 100 µM
COc1cc(NC(C)=O)ccc1C(=O)NN1C(=O)/C(=C/c2ccco2)N=C1c1ccccc1 = > 50 µM
O=C1c2ccccc2NC(=S)[C@@H]2CCCN12 = > 100 µM
CN(C)CCC(=O)/C=C\c1ccccc1 = 30.9 µM
C=C1C(=O)O[C@H]2[C@H]1CC/C(C=Nc1c(N)cc(C(F)(F)F)cc1Br)=C\CC[C@@]1(C)O[C@@H]21 = 4.24 µM

# get_value(readout='TGI', item= `CN(C)CCNC(=O)c1cccc2nc(-c3ccccc3)oc12` )
> 100 µM

Consider next the compound C[C@H]1SC(c2ccc(Cl)cc2Cl)N(NC(=O)c2ccncc2)C1=O (stereo not given in full) in the same way.
> 100 µM

Consider next the compound `c1ccc2[nH]c(-c3ccc(Nc4nc(N5CCCCC5)nc(N5CCOCC5)n4)cc3)nc2c1` in the same way.
4.38 µM

Consider next the compound `CCOC(=O)c1nc2cc(C(F)(F)F)ccc2nc1Nc1ccc(C(=O)NC(C(=O)OCC)C(=O)OCC)cc1` in the same way.
> 100 µM

Consider next the compound `C=CC(OCC)(OCC)OCC` in the same way.
> 100 µM

Just for reference, PubChem BioAssay (NCI) is where these values come from.
